measurement.target: human Fab of κ-type (Homo sapiens, UniProt P01834+P01857)
Sequence (P01857 with tags, fused parts or gaps, other chains not shown): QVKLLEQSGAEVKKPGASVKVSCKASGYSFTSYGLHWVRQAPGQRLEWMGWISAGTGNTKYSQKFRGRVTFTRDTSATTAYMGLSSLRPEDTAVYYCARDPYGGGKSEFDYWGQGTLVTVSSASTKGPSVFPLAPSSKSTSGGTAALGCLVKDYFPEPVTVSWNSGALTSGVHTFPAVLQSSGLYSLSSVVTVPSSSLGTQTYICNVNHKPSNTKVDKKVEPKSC
experiment.summary: STD NMR screening (1D saturation transfer difference) for binding to antibody
Design: key: 0 no; 1 weak; 2 strong signal
condition.info: 100 nM antibody, 0.5 mM ligand
endpoint.label: NMR signal conc 2
One number for each entry.

>  <compound>
Clc1ccc(COn2ccnc2)cc1Cl [AB_0001150, 1-[(3,4-dichlorobenzyl)oxy]-1h-imidazole]

>  <measurement.target>
human Fab of κ-type (Homo sapiens, UniProt P01834+P01857)

>  <NMR signal conc 2>
0

$$$$
>  <compound>
Clc1ccc(OCc2noc(CSc3ccccn3)n2)cc1

>  <measurement.target>
human Fab of κ-type (Homo sapiens, UniProt P01834+P01857)

>  <NMR signal conc 2>
1

$$$$
>  <compound>
O=C1C=CC(=O)N1c1cccc(Cl)c1 [AB_0001090, n-(3-chlorophenyl)-maleimide]

>  <measurement.target>
human Fab of κ-type (Homo sapiens, UniProt P01834+P01857)

>  <NMR signal conc 2>
0

$$$$
>  <compound>
COC(=O)NC(=O)c1nc(-c2ccccc2)c(C)o1

>  <measurement.target>
human Fab of κ-type (Homo sapiens, UniProt P01834+P01857)

>  <NMR signal conc 2>
0

$$$$

Task item: # input compound: N#CCc1ccc(C(=O)c2ccccc2F)s1 ; wanted: its NMR signal conc 2
Reply: 2
